tested on: M14 melanoma; experiment: NCI-60 one-dose screen, 48 h (100 = growth as untreated, 0 = no growth, -100 = all killed); settings: 10 µM unless noted
About 83,000 compounds went through this panel and 20% of them were active in at least one assay; those are over-represented in the sample as a whole. Calls of active or inactive are those of the source. How the source made its calls: active means growth percent below 10; inactive means the rest.
property: growth

In [3]: df
Out[3]:
                           smiles_structure            result
0  Cc1ccc(-c2nc3nc(-c4ccccc4)nc(N4CCN(S(=O)(=O)c5ccccc5)CC4)c3o2)cc1  96.7% (inactive)
1  O=C(CCCOc1ccc(Br)cc1)Nc1ncc(Cc2ccc(F)cc2)s1    51% (inactive)
2  COc1cc(/C=C2\C(=O)N(CCCCn3c4ccccc4c(=O)c4ccccc43)c3ccccc32)cc(OC)c1O  52.3% (inactive)

* * *

test system: HOP-92 NSCLC; assay: NCI-60 one-dose screen, 48 h (100 = growth as untreated, 0 = no growth, -100 = all killed); conditions: 10 µM unless noted
This is part of a sample that, as a whole, favours compounds with a hit. Of some 83,000 tested, about 20% had one in any assay.
// classify: if (growth < 40%) Condition met else Condition not met

In [3]: df
Out[3]:
                                   molecule   test_target         class_name
0             Nc1ccc(-c2ccc(N)c(Br)c2)cc1Br  HOP-92 NSCLC  Condition not met
1  Cc1nc2sc(C(=O)Nc3cccc4ncccc34)c(N)c2cc1C(C)O (stereo not given)  HOP-92 NSCLC  Condition not met
2  CCCn1nc(C(=O)N2CCCCC2)c2c1CCC(N1CCC(c3ccncc3)CC1)C2 (stereo not given)  HOP-92 NSCLC  Condition not met
3  CN1CCN(Cc2ccc(NC(=O)c3nc4ccc5[nH]ncc5c4c4c3CCCC4)cc2C(F)(F)F)CC1  HOP-92 NSCLC      Condition met
4   C#CCOCC1CN(C)C(=O)O1 (stereo not given)  HOP-92 NSCLC  Condition not met

* * *

Each item that follows carries a reported growth.
test system: OVCAR-3 ovarian; assay: NCI-60 one-dose screen, 48 h (100 = growth as untreated, 0 = no growth, -100 = all killed); settings: 10 µM unless noted
About 83,000 compounds went through this panel and 20% of them were active in at least one assay; those are over-represented in the sample as a whole.

molecule	growth / %
CON1CCC[C@]2(C)[C@H]3CC[C@@H]4[C@H]5[C@@H](O)C(C)(C)CC[C@]5(CO)CC[C@@]4(C)[C@]3(C)CC[C@H]2C1(C)C	104
Cc1c(O)c(O)cc2c3c(oc12)CC(c1ccc2c(c1)OCO2)CC3=O (stereo not given)	86.4
CCNC(=O)Oc1ccc(/C(=C(/C)Cc2ccc(OC)cc2)c2ccc(OCCN(CC)CC)cc2)cc1	50.7
C/C=C(/C)C(=O)O[C@@H]1CC(C)(C)CC2C34OC(=O)[C@@]21CC[C@@]3(C)[C@]1(C)CCC2C(C)(C)C(=O)CC[C@]2(C)C1C[C@@H]4Cl (stereo not given in full)	115
Nc1ncnc2c1C(c1ccc([N+](=O)[O-])cc1)c1sc3c(F)cccc3c1O2 (stereo not given)	110

* * *

Each item that follows carries a reported growth.
tested on: PC-3 prostate; test: NCI-60 one-dose screen, 48 h (100 = growth as untreated, 0 = no growth, -100 = all killed); conditions: 10 µM unless noted
Compounds without any hit were thinned out: in the full panel of roughly 83,000, 20% have a hit.

smiles-structure	test-target	growth, %
O=C(N/N=C/c1ccc(O)cc1O)c1cccc(Nc2ccnc(C(F)(F)F)c2)c1	PC-3 prostate	61
Fc1ccccc1-c1cnn2cc(-c3ccccc3)cnc12	PC-3 prostate	88.5
COc1cc(F)c(/C=C/c2cc(/C=C/c3cc(OC)c(OC)cc3F)n(-c3cc(F)cc(F)c3)n2)cc1OC	PC-3 prostate	10.4
O=c1oc2c(Br)cc(Br)cc2cc1-c1cc(-c2ccc(-c3cc(-c4cc5cc(Br)cc(Br)c5oc4=O)nc(-c4cc5cc(Br)cc(Br)c5oc4=O)c3)cc2)cc(-c2cc3cc(Br)cc(Br)c3oc2=O)n1	PC-3 prostate	97.5

* * *

tested on: RPMI-8226 leukemia; test: NCI-60 one-dose screen, 48 h; details: 10 µM unless noted
Compounds without any hit were thinned out: in the full panel of roughly 83,000, 20% have a hit. Calls of active or inactive are those of the source. Rule for the calls: active = growth percent below 10; inactive = the rest.
Classes used: yes (active), no (inactive)

                                    compound         test_target  class_name
 0  CN(C)CCCn1c2c(c3ccc(N4CCNCC4)cc3c1=O)C(=O)c1ccccc1-2  RPMI-8226 leukemia         yes
 1  O=C(/C=C/c1ccc([N+](=O)[O-])cc1)c1ccccc1  RPMI-8226 leukemia          no
 2                      Cc1ccccc1SSc1ccccc1C  RPMI-8226 leukemia          no
 3  Cc1ccc(Nc2nc(-c3cc(O)c(C)c(C)c3O)cs2)cc1  RPMI-8226 leukemia          no
 4  COc1ccc(/C=C/C(=O)c2cc3c(N)c(C(=O)Nc4ccccc4Cl)sc3nc2C)cc1  RPMI-8226 leukemia          no
 5    COc1ccc(/C=C(\C#N)c2cc3ccccc3[nH]2)cc1  RPMI-8226 leukemia          no
 6  CN1CCN(Cc2ccc(NC(=O)c3cccc(C#Cc4c(N)ncc5ccc(F)cc45)c3)cc2C(F)(F)F)CC1  RPMI-8226 leukemia         yes
 7  COc1cc(CNC(=O)CCCC/C=C/C(C)C)ccc1OCc1cn(-c2ccc([N+](=O)[O-])cc2)nn1  RPMI-8226 leukemia          no
 8  COC(=O)/C=C1/SC(=Nc2ccc([N+](=O)[O-])cc2)N(CCc2c[nH]c3ccccc23)C1=O  RPMI-8226 leukemia         yes
 9  CCCCCC#CC1OC23CCCCC2C(C#N)(C(=N)O3)C1(C#N)C#N (configuration not stated)  RPMI-8226 leukemia          no
10  COc1cc(/C=C(/c2ccccc2)[N+](=O)[O-])c(OC)c2c1OCO2  RPMI-8226 leukemia         yes
11        CCOC(=O)C(=Cc1ccc(C#N)cc1)C(=O)OCC  RPMI-8226 leukemia         yes

* * *

system: CAKI-1 renal; assay: NCI-60 one-dose screen, 48 h; settings: 10 µM unless noted
The panel holds about 83,000 compounds, 20% with a hit somewhere; the sample as a whole holds those more often. Calls of active or inactive are those of the source. Rule for the calls: active = growth percent below 10; inactive = the rest.
Classes used: active, inactive

>>> print(df.to_string())
                                   compound  class_name
0    Cc1cc2nc(C(Cl)Cl)nc(-c3ccc(Cl)cc3)n2n1      active
1  CC(C)=CCc1cc(O)c(O)c2oc3cc(O)cc(O)c3c(=O)c12    inactive
2  CC/C(=C(/c1ccc(O)cc1)c1ccc(OCCN2CCCCCC2)cc1)c1ccc(Cl)cc1    inactive
3  COc1cc(-c2nn(-c3cccc(NC(=O)CCN4CCN(C)CC4)c3)cc2-c2ccncc2)ccc1Cl    inactive
4                           NCCOCCOc1ccccc1    inactive
5    O=C(Oc1ccc(CO[N+](=O)[O-])cc1)c1ccccc1      active
6            CCNC(=O)Nc1ncccc1OCc1ccc(F)cc1    inactive
7  CCOC(=O)C1=C(C)N=C2SC=C(c3ccc(F)cc3)N2[C@H]1c1cn(-c2ccccc2)nc1-c1ccc(Cl)cc1    inactive
8  Nc1nc(N)c2c(n1)NC(c1cccc(Nc3ccnc4cc(C(F)(F)F)ccc34)c1)CC(c1ccc(F)cc1)=N2 (stereo not given)    inactive
9  Cn1cc2c(=O)nc3c(-c4nc5ccccc5[nH]4)n[nH]n3c2n1    inactive

* * *

tested on: A549/ATCC NSCLC; experiment: NCI-60 one-dose screen, 48 h; conditions: 10 µM unless noted
This is part of a sample that, as a whole, favours compounds with a hit. Of some 83,000 tested, about 20% had one in any assay. Active and inactive are the calls of the source. How the source made its calls: active means growth percent below 10; inactive means the rest.
Classes used: true (active), false (inactive)

molecule	test-target	class-name
COc1ccc2c(c1)c(-c1nc(-c3c[nH]c4c(Cl)nccc34)cs1)cn2C	A549/ATCC NSCLC	false
COc1ccc(C2=C(CN)C(O)NC(=NCC(=O)c3ccc4ccccc4c3)N2)cc1 (stereo not given)	A549/ATCC NSCLC	false
CN1Cn2c(ccc2C(F)(F)F)C(=O)CS1(=O)=O	A549/ATCC NSCLC	false
C=C1C(=O)O[C@H]2[C@H]1CC/C(CNS(=O)(=O)c1ccc3ccccc3c1)=C\CC[C@@]1(C)O[C@@H]21	A549/ATCC NSCLC	false
CCOC(=O)c1nc2c3ccccc3cnn2c1C(=O)c1ccc(OC)cc1	A549/ATCC NSCLC	false
CN(C)CCN1C(=O)c2c(c3c4ccccc4n4c3c3c2c2ccccc2n3C2CC(O)C(O)C4(C)O2)C1=O (stereo not given)	A549/ATCC NSCLC	true
Cc1ccc2c(c1)C(C)Cc1c(ncnc1-n1cnc3cc(C)ccc31)N2C (stereo not given)	A549/ATCC NSCLC	true
C=C(C)[C@@H]1CC[C@]2(C)[C@H](CC(=O)N[C@H]3[C@@H]4C[C@](C)(C(=O)OC)CC[C@]4(C)CC[C@]32C)[C@@]1(C)CCC#N	A549/ATCC NSCLC	false
FC(F)(F)Sc1ccc(/C=C/c2cc(/C=C/c3ccc(SC(F)(F)F)cc3)n(-c3ccccc3)n2)cc1	A549/ATCC NSCLC	false
COc1ccc(Oc2nc(Nc3ccc(N4CCOCC4)cc3)ncc2NC(=O)c2cc(OC)cc(OC)c2)cc1	A549/ATCC NSCLC	false
COc1ccccc1/C=C1\COc2ccc(O)cc2C1=O	A549/ATCC NSCLC	false
C=C(CN1CC=CCC1)[C@@H]1CC[C@]2(COC(C)=O)CC[C@]3(C)[C@H](CC[C@@H]4[C@@]5(C)CC[C@H](O)C(C)(C)[C@@H]5CC[C@]43C)[C@@H]12	A549/ATCC NSCLC	false
Clc1ccc2c(c1)N(c1ncnc3ccc(-c4cnc5[nH]ccc5c4)cc13)CC2	A549/ATCC NSCLC	false
N=C(N)SCc1c2ccccc2c(CSC(=N)N)c2ccccc12	A549/ATCC NSCLC	false
C=C1CC[C@@H]2[C@](C)(COC(C)=O)[C@H](OC(C)=O)CC[C@@]2(C)[C@@H]1CC(Nc1ccc(S(=O)(=O)Nc2nccs2)cc1)C1=CCOC1=O (stereo not given in full)	A549/ATCC NSCLC	false
O=C(/C=C/c1cccs1)Nc1ncc(Cc2ccc(Cl)c(Cl)c2)s1	A549/ATCC NSCLC	false
C#CCOCC1CN(C)C(=O)O1 (stereo not given)	A549/ATCC NSCLC	false
COc1ccc(Cl)cc1Nc1nc(C(F)(F)F)ccc1C(=O)N/N=C/c1ccc(N(C)C)cc1	A549/ATCC NSCLC	false
COC1/C=C/OC2(C)Oc3c(C)c(O)c4c(O)c(c(C=NOC(c5ccccc5)c5ccccc5)c(O)c4c3C2=O)NC(=O)/C(C)=C/C=C/C(C)C(O)C(C)C(O)C(C)C(OC(C)=O)C1C (stereo not given)	A549/ATCC NSCLC	false
CCOC(=O)CC1CSC(c2cccc(Cl)c2)=N1 (stereo not given)	A549/ATCC NSCLC	false

// data source = PubChem BioAssay (NCI)
